I'd be grateful if you could share measured Kd for these entries.
# test-target: T1, recombinant human M-CSF (human, UniProt P09603 33-190, limits assumed)
# T1 construct: The active form is described as a disulfide bonded dimer; also called M-SCF; CSF-1
# T1 sequence: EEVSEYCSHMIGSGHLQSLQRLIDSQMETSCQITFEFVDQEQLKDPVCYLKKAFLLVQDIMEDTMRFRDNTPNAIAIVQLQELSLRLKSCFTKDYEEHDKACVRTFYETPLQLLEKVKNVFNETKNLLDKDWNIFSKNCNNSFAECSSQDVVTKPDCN
# method-description: SPR (Biacore), M-CSF amine-coupled on CM5 chip, antibody flowed, 25 C, 1:1 model
Give bare numbers, in nM.

The examples below pair each entry with its known result.
>>> reported_value("heRX1-8.G2 (antibody, V domains shown, copies: 2 + 2) VH: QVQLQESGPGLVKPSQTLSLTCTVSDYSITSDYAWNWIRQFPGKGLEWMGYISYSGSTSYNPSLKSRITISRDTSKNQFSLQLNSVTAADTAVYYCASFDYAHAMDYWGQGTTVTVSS VL: EIVLTQSPGTLSVSPGERVTFSCRASQSIGTSIHWYQQKTGQAPRLLIKYASESISGIPDRFSGSGSGTDFTLTISRVESEDFADYYCQQINSWPTTFGQGTKLEIK")
9.8
>>> reported_value("heRX1-5.G2 (antibody, V domains shown, not shown: human Gamma-2 heavy chain constant region; human Kappa light chain constant region (the printed V regions end in EIKRT, which may overlap its start)) VH: DVQLQESGPGLVKPSQTLSLTCTVTDYSITSDYAWNWIRQFPGKKLEWMGYISYSGSTSYNPSLKSRITISRDTSKNQFSLQLNSVTAADTATYYCASFDYAHAMDYWGQGTTVTVSS VL: EIVLTQSPGTLSVSPGERVTFSCRASQSIGTSIHWYQQKTGQSPRLLIKYASESISGIPDRFSGSGSGTDFTLTISRVESEDFADYYCQQINSWPTTFGQGTKLEIKR")
7.4

// Kd value for heRX1-9.G2 (antibody, V domains shown, not shown: human Gamma-2 heavy chain constant region; human Kappa light chain constant region (the V region entry may overlap its start)) VH: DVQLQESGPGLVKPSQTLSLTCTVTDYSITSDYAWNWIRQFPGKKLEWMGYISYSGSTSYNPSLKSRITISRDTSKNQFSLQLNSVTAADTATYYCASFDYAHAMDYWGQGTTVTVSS VL: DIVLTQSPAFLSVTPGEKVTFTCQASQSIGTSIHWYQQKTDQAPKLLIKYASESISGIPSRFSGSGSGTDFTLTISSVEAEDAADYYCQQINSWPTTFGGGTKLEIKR : 7.2
